Listing of recorded pIC50 by entry.
- TARGET_ENTITY: Zap70 (Homo sapiens, UniProt P43403)
- Sequence (P43403 1-619): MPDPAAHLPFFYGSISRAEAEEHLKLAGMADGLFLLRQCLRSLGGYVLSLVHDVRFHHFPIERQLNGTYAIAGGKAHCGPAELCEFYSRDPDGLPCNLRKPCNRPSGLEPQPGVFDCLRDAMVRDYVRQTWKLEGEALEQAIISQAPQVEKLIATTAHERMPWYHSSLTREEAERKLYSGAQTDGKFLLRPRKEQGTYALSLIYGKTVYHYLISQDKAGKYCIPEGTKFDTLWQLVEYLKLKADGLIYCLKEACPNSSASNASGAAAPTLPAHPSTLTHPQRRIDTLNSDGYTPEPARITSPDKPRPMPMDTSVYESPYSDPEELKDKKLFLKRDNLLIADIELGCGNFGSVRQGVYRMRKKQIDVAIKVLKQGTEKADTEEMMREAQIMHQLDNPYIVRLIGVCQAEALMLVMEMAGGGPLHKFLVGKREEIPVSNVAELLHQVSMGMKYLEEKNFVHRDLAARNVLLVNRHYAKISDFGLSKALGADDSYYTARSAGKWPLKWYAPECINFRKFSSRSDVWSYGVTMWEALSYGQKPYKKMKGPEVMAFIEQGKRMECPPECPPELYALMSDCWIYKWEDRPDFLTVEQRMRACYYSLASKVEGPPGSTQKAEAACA
pIC50: −log10 of the molar value.
ASSAY_READOUT: pIC50

| MOLECULE | REPORTED_VALUE |
| --- | --- |
| COc1cc(-c2cc3nccc(-c4ccc5c(c4)OCO5)c3o2)cc(OC)c1OC | 5.52 to 6.52 |
| COc1ccc(-c2cc3nccc(-c4ccccc4)c3o2)cc1NC(=O)[C@@H]1CCCN1 | 4.30 to 5.52 |
| COc1cc(-c2cc3nccc(-c4ccnc(NCC5CCCNC5)c4)c3o2)cc(OC)c1OC (stereo not drawn) | 4.30 to 5.52 |

Values from patent US9006440B2
